measured.target: JR-CSF pseudovirus (HIV-1 Env on the virions) (HIV-1) (UniProt P20871)
assay: cell-based or functional assay
observable: IC50 (ug/ml), pseudovirus neutralization, TZM-bl assay

>>> measured("1456_A12 (PG16) (antibody, V domains shown) VH: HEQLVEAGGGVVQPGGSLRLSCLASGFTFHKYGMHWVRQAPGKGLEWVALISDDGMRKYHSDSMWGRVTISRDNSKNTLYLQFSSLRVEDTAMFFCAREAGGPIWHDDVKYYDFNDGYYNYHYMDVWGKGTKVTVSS VL: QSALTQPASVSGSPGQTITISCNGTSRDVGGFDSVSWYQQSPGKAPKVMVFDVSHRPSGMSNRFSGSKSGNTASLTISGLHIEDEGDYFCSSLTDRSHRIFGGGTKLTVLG")
"0.001 µg/mL"
>>> measured("1489_I13 (PG16) (antibody, V domains shown) VH: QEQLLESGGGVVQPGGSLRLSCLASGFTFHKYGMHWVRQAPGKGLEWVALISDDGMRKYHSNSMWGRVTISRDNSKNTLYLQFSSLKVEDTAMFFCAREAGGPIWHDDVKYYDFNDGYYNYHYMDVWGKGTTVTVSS VL: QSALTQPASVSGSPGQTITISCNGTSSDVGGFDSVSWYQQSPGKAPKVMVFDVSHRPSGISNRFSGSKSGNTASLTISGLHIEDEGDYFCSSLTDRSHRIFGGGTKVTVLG")
"0.002 µg/mL"
>>> measured("1469_M23 (PG16) (antibody, V domains shown) VH: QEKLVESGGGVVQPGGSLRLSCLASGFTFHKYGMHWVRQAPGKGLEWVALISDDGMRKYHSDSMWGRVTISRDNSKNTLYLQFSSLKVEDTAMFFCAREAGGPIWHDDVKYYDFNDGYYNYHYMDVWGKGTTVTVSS VL: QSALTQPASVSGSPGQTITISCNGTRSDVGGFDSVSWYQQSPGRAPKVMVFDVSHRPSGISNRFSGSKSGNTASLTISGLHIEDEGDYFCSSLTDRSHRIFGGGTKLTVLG")
"0.002 µg/mL"
>>> measured("1503_H05 (PG16) (antibody, V domains shown) VH: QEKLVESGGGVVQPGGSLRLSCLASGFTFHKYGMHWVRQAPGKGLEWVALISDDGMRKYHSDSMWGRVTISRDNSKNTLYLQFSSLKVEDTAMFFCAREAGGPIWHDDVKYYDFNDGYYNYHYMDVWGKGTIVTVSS VL: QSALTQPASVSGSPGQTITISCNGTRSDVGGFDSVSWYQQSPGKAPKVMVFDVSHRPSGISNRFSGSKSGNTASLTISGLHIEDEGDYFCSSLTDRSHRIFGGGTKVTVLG")
"0.001 µg/mL"

// provenance: patent US20110044994A1
